Numbers sourced from PubChem BioAssay.

Target: Neurogenic locus notch homolog protein 2 (Homo sapiens)
Experiment: small molecules binding Notch2 protein – biochemical, small-molecule microarray, 635 nm fluorescence, stem cell growth factors, primary screen (AID 1073)
Settings: higher = more signal
Property Name: composite z-score
One number for each entry.

Worked set:
Molecule	Study Target	composite z-score
CC(C)C[C@H]1NC(=O)[C@H](C)NC(=O)[C@@]23C(=O)N[C@@H](Cc4ccccc4)C2[C@H](C)[C@@]2(C)O[C@H]2C3/C=C/C/C=C\CNC1=O (some centres not stated)	Neurogenic locus notch homolog protein 2 (Homo sapiens)	-0.465
CC1(C)[C@@H]2CC(C(O)C3C=CC4C(=O)N(c5ccccc5)C(=O)C4N3Nc3ccccc3F)=C[C@@H]1C2 (some centres not stated)	Neurogenic locus notch homolog protein 2 (Homo sapiens)	1.54
[N-]=[N+]=Nc1ccccc1[C@@H]1OC(c2ccc(OCCCO)cc2)=N[C@]1(CCS(=O)(=O)c1ccccc1)C(=O)NCc1ccccc1	Neurogenic locus notch homolog protein 2 (Homo sapiens)	1.52
Cc1ccccc1C(O)C1C=CC2C(=O)N(Cc3ccccc3)C(=O)C2N1n1cnnc1 (configuration not stated)	Neurogenic locus notch homolog protein 2 (Homo sapiens)	1.02
C=CCOC(=O)[C@H]1[C@@H]2C(=O)O[C@@H](c3ccccc3)[C@@H](c3ccccc3)N2[C@@H](c2ccc(OCCOC(=O)[C@H]3C[C@H]4C(=O)N[C@@H](CCCCN(C)C)C(=O)N4[C@H]3c3ccc(O)cc3)cc2)[C@]12C(=O)Nc1ccccc12	Neurogenic locus notch homolog protein 2 (Homo sapiens)	0.349

Give composite z-score for all molecules that follow.
1. C=CCOC(=O)[C@@H]1[C@H]2C(=O)O[C@H](c3ccccc3)[C@H](c3ccccc3)N2[C@H](c2ccc(OCCOC(=O)[C@@H]3C[C@@H]4C(=O)N5CCC[C@H]5C(=O)N4[C@@H]3c3cccc(OCCO)c3)cc2)[C@@]12C(=O)Nc1ccc(I)cc12
2. Cc1ccc(C(C)CC(O)C2C=CC3C(=O)N(Cc4ccccc4)C(=O)C3N2n2cnnc2)o1 (configuration not stated)
3. COC(=O)[C@@]1(Cc2ccccc2)[C@H]2c3cc(C(=O)N(C)C)n(Cc4ccccn4)c3C[C@H]2CN1C(=O)c1ccccc1

[0.115, 1.29, 1.15]

* * *

Test: small molecules captured by biotinylated probe aFST – biochemical, small-molecule microarray, fluorescence 635/667, stem cell growth factor project, primary screen (AID 1086);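 further: score merges 667 nm fluorescence with signal-to-noise of each printed compound spot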
Conditions: higher = more signal
Property Name: composite z-score
One number for each entry.

Would you please look over these solved cases?
Molecule	composite z-score
C=CCOC(=O)[C@@H]1[C@H]2C(=O)O[C@H](c3ccccc3)[C@H](c3ccccc3)N2[C@H](c2ccc(OCCOC(=O)[C@H]3C[C@H]4C(=O)N[C@@H](Cc5ccccc5)C(=O)N4[C@H]3c3cccc(OCCO)c3)cc2)[C@@]12C(=O)Nc1ccc(I)cc12	0.56
C=CCC(OC(C)=O)[C@@H]1[C@@H](N(Cc2ccc(-c3cccc(C(F)(F)F)c3)o2)C(=O)c2cccc3ccccc23)c2cc(OCCCO)ccc2N1C(=O)c1ccc(-c2ccccc2)cc1 (stereo not given in full)	0.123
C=C(COC)C(=O)CC[C@H](OC(=O)c1ccccc1-c1ccccc1C(=O)O)c1ccc(OCCO)cc1	0.347

For every item in the list below, what is its measured composite z-score?
1. COC(=O)[C@@]1(Cc2ccccc2)[C@H]2c3cc(C(=O)N4CCCC4)n(CCO)c3C[C@H]2CN1C(=O)c1ccccc1
2. C[C@@H]1ON(c2ccccc2)[C@H](c2ccccc2)[C@H]1C(=O)N1C(=O)OC[C@H]1Cc1ccccc1
3. COc1ccc([Si](C)(C)[C@@H]2[C@@H](CC(=O)N(CCO)Cc3ccccc3)O[C@]3(C(=O)N(Cc4ccc(N5CCOC5=O)cc4)c4ccccc43)[C@H]2C)cc1
4. CN(C)C(=O)[C@]1(Cc2ccccc2N=[N+]=[N-])N=C(c2ccc(OCCCO)cc2)O[C@@H]1c1ccccc1CN=[N+]=[N-]
5. COC(=O)[C@@]1(Cc2ccccc2)[C@H]2c3cc(C(=O)N4CCCC4)n(Cc4ccc(OC(F)(F)F)cc4)c3C[C@H]2CN1C(=O)c1ccccc1
6. COC(=O)c1c(CC[C@@H](CO)NC(=O)N[C@@H](C)Cn2cc(C3(O)CCCC3)nn2)oc(C(C)=O)c1C(=O)OC
7. C=CCC(OC(C)=O)[C@@H]1[C@@H](N(Cc2cc3ccccc3o2)C(=O)Cc2ccc(OC)cc2)c2cc(OCCCO)ccc2N1C(=O)c1ccc(-c2ccccc2)cc1 (stereo not given in full)

1. 2.6
2. 0.138
3. 0.389
4. 0.745
5. 1.73
6. 0.517
7. 0.182

* * *

What z-score was measured for each of the following?
Assay: inhibition of PAO1 biofilm formation – strain PAO1, LB-PBS medium, absorbance 600 nm, primary screen (AID 1176); further: test concentration not given here
Conditions: P. aeruginosa PAO1 growth/biofilm, A600, 12 h; higher = more signal
Numbers only.

Hello, I would appreciate it if you could give z-score for each entry below.
1. COCCCNC(=O)[C@@]1(Cc2ccccc2CN=[N+]=[N-])N=C(c2ccc(OCCCO)cc2)O[C@H]1c1ccccc1N=[N+]=[N-]
2. CC(C)N1C(=O)c2ccccc2[C@](C)(C(=O)O)[C@@H]1c1ccc(CO)cc1
3. COCCOC(=O)N1C(=O)[C@@]2(c3cc(C#CCNC(N)=O)ccc31)[C@H](C(=O)N1CCCCCCC1)[C@H]1C(=O)O[C@H](c3ccccc3)[C@H](c3ccccc3)N1[C@@H]2c1ccc(OCCO)cc1
4. NCCCCCCNC(=O)[C@H]1C[C@H]2C(=O)N3CCC[C@H]3C(=O)N2[C@H]1c1ccc(O)cc1
5. O=[N+]([O-])c1ccc(C[n+]2ccc(-c3ccc(CO)cc3)cc2)o1
6. C[C@@]1([C@@H](NC(=O)c2cccs2)c2ccc(-c3ccccc3)cc2)C[C@H]1C1CCCCC1

[0.413, 0.332, 2.73, -0.0059, 0.503, 2.3]

* * *

Tested on: Lefty1
Test: Lefty1 protein binding to printed compounds – biochemical, small-molecule microarray, 635/667 nm fluorescence, primary screen (AID 1139)
Settings: fluorescence 635/667, higher = more signal
For each entry below, report its composite z-score value.

Worked examples, 3 molecules total:
Molecule	Study Target	Result
CCCC=C(CCC)[C@@H](NS(=O)(=O)CC)c1ccccc1	Lefty1	-0.346
C=C(COC)/C(=C/C[C@@H](OC(=O)c1ccncc1)c1cccc(OCCO)c1)c1cc(C(=O)OC)ccc1OC	Lefty1	1.63
C=C[C@@H](O)[C@H]1CC(c2ccccc2)=NO1	Lefty1	-0.0793

Items follow; give composite z-score for each.
1. CN(C)CCCN1C(=O)[C@@]2(Cc3ccccc31)c1ccccc1C(=O)N(Cc1ccccc1)[C@H]2c1ccc(CO)cc1
2. COC(=O)C(CC#Cc1ccc2c(c1)[C@]1(C(=O)N2)[C@H](c2ccc(OCCO)cc2)N2[C@H](c3ccccc3)[C@H](c3ccccc3)OC(=O)[C@H]2[C@@H]1C(=O)O)C(=O)OC
3. CCOC(=O)C[C@H]1[C@H](OC(=O)c2ccccc2-c2ccccc2)[C@@H](NC(=O)c2ccccc2)c2cc(OCCCO)ccc2N1C(=O)Cc1ccc(OC)cc1
4. COC(=O)[C@]1(Cc2ccccc2CN=[N+]=[N-])N=C(c2ccc(OCCCO)cc2)O[C@@H]1c1ccccc1CN=[N+]=[N-]
5. COC(=O)[C@@]1(Cc2ccc(F)cc2)[C@H]2c3cc(C(=O)N(C)C)n(CCSCCO)c3C[C@H]2CN1C(=O)c1ccccc1
6. COCC(=C=CC[C@@H](O)c1ccccc1OCCO)C[C@@H](O)COCc1ccccc1
7. O=C1c2ccccc2[C@](Cc2ccccc2I)(C(=O)NC2CC2)[C@H](c2ccc(CO)cc2)N1Cc1ccccc1Cl
8. CC(C)(C)OC(=O)CC[C@]1(C(=O)N2CCCCC2)N=C(c2ccc(OCCCO)cc2)O[C@H]1c1ccccc1CN=[N+]=[N-]

1: 0.122; 2: 0.861; 3: -0.018; 4: -0.222; 5: -0.601; 6: 0.317; 7: 0.0036; 8: 0.675

* * *

Would you mind telling me the reported composite z-score of each entry?
Tested on: Neuregulin-1 EGF-like domain
Test: small molecules binding NRG1 EGF domain – biochemical, small-molecule microarray, 635 nm fluorescence, primary screen (AID 1081)
Settings: higher = more signal
Numbers only.

Some solved cases for reference:
Structure As Smiles	composite z-score
C=CCN1C(=O)[C@@]2(O[C@@H](CCn3cc([C@H](O)c4ccccc4)nn3)[C@H]([Si](C)(C)c3ccc(OC)cc3)[C@H]2C)c2cc(NC(=O)c3ccc(OC)cc3)ccc21	0.531
CCCN1C(=O)[C@@]2(Cc3ccccc3)N=C(c3ccc(OCCCO)cc3)O[C@H]2c2ccccc21	1.12
CC(C)N1C(=O)c2ccccc2[C@](C)(C(=O)O)[C@@H]1c1ccc(CO)cc1	-0.0487

Note: attention shifts to another entry.
Dear colleague, please send me the reported composite z-score for CO[C@H]1O[C@H](CO)[C@@H](OC(=O)c2ccc(Br)cc2)[C@@H]2OC(=O)[C@H](Cc3cccc(Br)c3)C/C=C/C[C@@H](Cc3cccc(Br)c3)C(=O)O[C@@H]12 when you can. 1.06
